B1: Osa-1-4 twister ribozyme (parent)
chain: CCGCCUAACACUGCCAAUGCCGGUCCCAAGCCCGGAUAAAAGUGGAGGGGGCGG

variants of: B1; experiment: self-cleavage, relative activity (ratio to wild type); higher = more cleavage; co-transcriptional
Returns one of rule met or rule not met; rule met when self-cleavage is >= 0.08.

Solved cases below.
CCGCCUAACACUGCCAAUGCCGGUCCCUAGCCCGGAUAAAAGUGGAGGGGGCUG	rule met
CCGCCUUACACUGCCAAUGCCGGUCCCAAGCCCGGAUAAAAGUGGAGGGGGCCG	rule not met

Exercise: Textbook exercise: given the entry CCGCCUAACACUGCCAAUCCCGGUCCCAAGCCCAGAUAAAAGUGGAGGGGGCGG , state whether its self-cleavage is greater than or equal to 0.08.
Key: rule met
